The variants listed here are annotated with their polymerase ribozyme fitness (log ratio).
B1: TPR 5TU (parent)
chain: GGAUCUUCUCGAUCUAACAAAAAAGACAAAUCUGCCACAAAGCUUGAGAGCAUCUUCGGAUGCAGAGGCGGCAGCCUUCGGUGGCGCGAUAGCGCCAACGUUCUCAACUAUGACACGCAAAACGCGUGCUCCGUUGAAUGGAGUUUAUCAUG

variants of: B1; test: polymerase ribozyme fitness, log enrichment relative to wild type (log ratio); higher = more active; in vitro selection for triplet polymerase activity
Fewer inactive variants are shown than the library holds.
Hey, just send me the number, nothing else.

Sample answers from the record:
{"columns": ["mutation-name", "polymerase ribozyme fitness (log ratio)"],
 "data": [
  ["C76A C85U", -0.443],
  ["C87U A120G A121C A147U U148C", -2.38],
  ["G94U A142U", -1.73]
]}

Measured polymerase ribozyme fitness (log ratio), U31A U56A U127C : -1.37

C14G G59A C87U has a reported polymerase ribozyme fitness (log ratio) of -3.82

Consider G92U C123A . Its measured polymerase ribozyme fitness (log ratio) is -0.758
